Numbers sourced from ChEMBL document CHEMBL4680177.

# System: Trypanosoma brucei brucei
# methodNotes: Antitrypanosomal activity against bloodstream form Trypanosoma brucei brucei 427 […] assessed as cell viability after 24 hrs by propidium iodide staining based flow cytometric analysis
# Assay type: functional, organism-based
# settings: Trypanosoma brucei, 427, 24 h
compounds and their reported EC50
metricName: EC50 (nM)

COC(=O)c1nc(NC(=O)c2cc(NC(=O)c3nc(NC(=O)OC(C)(C)C)sc3C(C)C)cn2C)sc1C(C)C: 11.8
CCOC(=O)c1csc(NC(=O)c2cc(NC(=O)c3csc(NC(=O)OC(C)(C)C)n3)cn2C)n1: 7.1
CC(=O)NCC(=O)O.CC(=O)NCC(=O)O.N=C(N)c1ccc(/N=N/Nc2ccc(C(=N)N)cc2)cc1 [DIMINAZENE DIACETURATE]: 41
Cn1cc(NC(=O)c2csc(NC(=O)OC(C)(C)C)n2)cc1C(=O)Nc1nc(C(=O)O)cs1: 3320
Cc1ccc(C(=O)Nc2ccc(S(=O)(=O)O)c3cc(S(=O)(=O)O)cc(S(=O)(=O)O)c23)cc1NC(=O)c1cccc(NC(=O)Nc2cccc(C(=O)Nc3cc(C(=O)Nc4ccc(S(=O)(=O)O)c5cc(S(=O)(=O)O)cc(S(=O)(=O)O)c45)ccc3C)c2)c1: 78
COC(=O)c1nc(NC(=O)c2cc(NC(=O)c3nc(NC(C)=O)sc3C(C)C)cn2C)sc1C(C)C: 827
CC1CS(=O)(=O)CCN1/N=C/c1ccc([N+](=O)[O-])o1 (configuration not stated): 10000
